System: HS 578T breast
Test: NCI-60 one-dose screen, 48 h
Conditions: 10 µM unless noted
About 83,000 compounds went through this panel and 20% of them were active in at least one assay; those are over-represented in the sample as a whole. The source made the active and inactive calls. The calls were made as follows: active = growth percent below 10; inactive = the rest.
Classes used: active, inactive

[[record]]
compound = "CCNc1ncnc2n[nH]nc12"
grouplabel = "inactive"

[[record]]
compound = "Nc1ccc(S(=O)(=O)Nc2cc(I)cc(I)c2)cc1"
grouplabel = "inactive"

[[record]]
compound = "COc1ccc(C(=O)NC(=O)Nc2ccc3c(c2)NC(=O)/C3=C\\c2[nH]c(C)c(C(=O)O)c2C)cc1"
grouplabel = "inactive"

[[record]]
compound = "CC(=O)O[C@@H]1[C@@H](OC(C)=O)[C@H](OC(C)=O)CO[C@H]1Nc1cccc2ccccc12"
grouplabel = "inactive"

[[record]]
compound = "O=C1C(SCCO)=C(SCCO)C(=O)N1c1ccc(-c2ccccc2)cc1"
grouplabel = "active"

[[record]]
compound = "Cc1nccc2c3ccc(OCc4cn(-c5ccc(Br)cc5)nn4)cc3n(CCCc3ccccc3)c12"
grouplabel = "active"

[[record]]
compound = "O=C(/C=C/c1ccco1)c1cccc(Nc2nc(Nc3ccccc3)nc(Nc3ccccc3)n2)c1"
grouplabel = "inactive"

[[record]]
compound = "COc1ccc(/C=C/C(=O)/C=C(/C=C/c2ccc(OC)c(OC)c2OC)OB(F)F)c(OC)c1OC"
grouplabel = "inactive"

[[record]]
compound = "OC[C@@H](O)C(O[C@@H]1O[C@H](CO)[C@H](O)[C@H](O)[C@H]1O)[C@H](O)[C@@H](O)CO (some centres undefined)"
grouplabel = "inactive"


----------
System: OVCAR-4 ovarian
Experiment: NCI-60 one-dose screen, 48 h
Conditions: 10 µM unless noted
About 83,000 compounds went through this panel and 20% of them were active in at least one assay; those are over-represented in the sample as a whole. Calls of active or inactive are those of the source. The calls were made as follows: active = growth percent below 10; inactive = the rest.
Classes used: T (active), F (inactive)

[[record]]
compound = "CCCCn1c(-c2cccc(OC)c2)nc2cc(OC)c(OC)cc2c1=O"
grouplabel = "F"

[[record]]
compound = "Cc1cn(-c2nc3c(c(NCc4ccccc4)n2)COCC3)c2cccc(C(N)=O)c12"
grouplabel = "F"

[[record]]
compound = "CCn1cc(/C=C2\\Oc3cc(OCC#N)ccc3C2=O)c2cc(OC)ccc21"
grouplabel = "F"

[[record]]
compound = "c1ccc(CNCCN(CCNCc2ccccn2)Cc2ccc3ccccc3c2)nc1"
grouplabel = "T"

[[record]]
compound = "CC(NCCC(c1ccccc1)c1ccccc1)c1ccccc1 (stereo unspecified)"
grouplabel = "F"

[[record]]
compound = "CS(=O)(=O)Nc1cccc(-c2ccc3ncnc(Nc4ccc(F)c(Cl)c4)c3c2)c1"
grouplabel = "F"

[[record]]
compound = "c1ccc([Se]CCCN2CCN(CCC[Se]c3ccccc3)CC2)cc1"
grouplabel = "F"

[[record]]
compound = "Clc1ccc2c(NCCNc3nc(Cl)nc4ccccc34)ccnc2c1"
grouplabel = "T"

[[record]]
compound = "Nc1nc(-c2cc3c(cc2Cl)NC(=O)/C3=C/c2ccccc2)cs1"
grouplabel = "F"

[[record]]
compound = "O=C(Nc1ccc(F)cc1)Nc1ccc(Br)c(C(F)(F)F)c1"
grouplabel = "F"

[[record]]
compound = "COc1ccc(C(=O)Cn2cnc3c(Nc4cc(C(=O)Nc5ccc(N6CCN(CCO)CC6)cc5)ccc4C)ncnc32)cc1"
grouplabel = "F"

[[record]]
compound = "Cc1cccc(NC(=O)CCc2ccc(N3C(N)=NC(N)=NC3(C)C)cc2)c1"
grouplabel = "F"

[[record]]
compound = "Cc1[nH]c2ccc(F)cc2c1CCNC(=O)C1CCN(C(=O)c2ccc(-c3ccccc3)cc2)CC1"
grouplabel = "F"

[[record]]
compound = "COc1cc(C(=O)NNC(=O)c2ccccc2O)cc(OC)c1OC"
grouplabel = "F"

[[record]]
compound = "COc1ccc(CCNC=O)cc1OC"
grouplabel = "F"

[[record]]
compound = "CC(C(C(=O)N1CCCCC1)N1CCCCC1)N1CCCCC1 (stereo unspecified)"
grouplabel = "F"

[[record]]
compound = "C=C1C(=O)O[C@H]2[C@H]1CC/C(COC(=O)c1ccc3ccccc3c1)=C\\CC[C@@]1(C)O[C@@H]21"
grouplabel = "T"

[[record]]
compound = "Cc1ccc(=O)n(-c2ccc(Br)cc2F)c1"
grouplabel = "F"

[[record]]
compound = "O=C1COc2ccccc2C(=O)N1CCCCNc1ccccc1"
grouplabel = "F"

[[record]]
compound = "Nn1c(CN2CCN(c3cc4c(cc3F)c(=O)c(C(=O)O)cn4C3CC3)CC2)n[nH]c1=S"
grouplabel = "F"

[[record]]
compound = "O=C(NCCNc1nccc(-c2c(-c3cccc(O)c3)nc3sccn23)n1)c1ccccc1"
grouplabel = "F"

[[record]]
compound = "S=c1n(CNc2ccc(Cl)nn2)nc(-c2cc(Cl)cc(Cl)c2Cl)n1/N=C/c1ccc(Cl)cc1"
grouplabel = "F"

[[record]]
compound = "C=C1C(=O)O[C@H]2[C@H]1CC/C(C(=O)NCCOCCOCC(=O)Nc1ccc(OC)c(C(N)=O)c1O)=C\\CC[C@@]1(C)O[C@@H]21"
grouplabel = "F"

[[record]]
compound = "Cc1c(C(C)(C)C)cc(C(C)(C)C)c2c1CN(C)CO2"
grouplabel = "F"

[[record]]
compound = "O=C(C[n+]1ccccc1Cl)c1ccc2c(c1)CCCC2"
grouplabel = "F"

[[record]]
compound = "CCCCCCCCCCCCCCCCCCNCc1ccc(Cl)cc1"
grouplabel = "T"

[[record]]
compound = "CC(C)(C)NC(C1=CC(C)(C)c2ccccc2C1=O)c1ccccc1 (stereo unspecified)"
grouplabel = "T"

[[record]]
compound = "COc1ccc(N)c(S)c1"
grouplabel = "F"

[[record]]
compound = "O=C(Cn1c2ccccc2c2ccncc21)N/N=C/c1c[nH]c2ccccc12"
grouplabel = "T"

[[record]]
compound = "O=C(Nc1ccc(-n2ccc3c(NC(=O)c4ccccc4)nccc32)cc1)Nc1ccc(Cl)c(Cl)c1"
grouplabel = "T"

[[record]]
compound = "CC(C)NCC(O)COc1ccc(CC(N)=O)cc1 (stereo unspecified)"
grouplabel = "F"

[[record]]
compound = "O=C1CCC(c2c(O)cc(O)c3c(=O)c(O)c(-c4ccc(O)c(O)c4)oc23)N1 (stereo unspecified)"
grouplabel = "F"

[[record]]
compound = "COC(OC)C1(c2ccccc2)NC(=O)NC1=O (stereo unspecified)"
grouplabel = "F"

[[record]]
compound = "COc1ccc(-c2cc(-c3nnc(SC/C(=N\\O)c4ccccc4)n3-c3ccccc3)c3ccccc3n2)cc1"
grouplabel = "F"

[[record]]
compound = "COc1ccc(C2CC(c3cc(Cl)c(C)cc3OC)=NN2c2ccc(S(N)(=O)=O)cc2)cc1OC (stereo unspecified)"
grouplabel = "F"

[[record]]
compound = "COc1cc(-c2nc(N)n(CC(=O)Nc3ccc(/C(C)=N\\O)cc3)n2)cc(OC)c1OC"
grouplabel = "F"

[[record]]
compound = "CCC(N)(C(=O)O)c1ccc(F)cc1 (stereo unspecified)"
grouplabel = "F"

[[record]]
compound = "CN1C(=O)C2(SCC(C(=O)NCC(=O)OC(C)(C)C)N2C(=O)C2CCCCC2)c2ccccc21 (stereo unspecified)"
grouplabel = "F"

[[record]]
compound = "O=C(Nc1ccc(-n2cc(-c3ccncc3)c(-c3ccc(O)c(Cl)c3)n2)cc1)Nc1cc(C(F)(F)F)cc(C(F)(F)F)c1"
grouplabel = "F"

[[record]]
compound = "O=C(Nc1ccc(-n2cc(-c3ccncc3)c(-c3ccc(O)c(Cl)c3)n2)cc1)c1cc(C(F)(F)F)cc(C(F)(F)F)c1"
grouplabel = "F"

[[record]]
compound = "C#CCn1c(-c2cc(OC)c(OC)cc2Br)nc(-c2ccccc2)c1-c1ccccc1"
grouplabel = "F"


----------
System: RXF 393 renal
Assay: NCI-60 one-dose screen, 48 h
Details: 10 µM unless noted
Procedure: Cells are grown in 96 well plates and exposed to the test compound for 48 hours. Compounds are tested at a single concentration, which is 10^-5 M for most compounds. The reported endpoint is percent growth (GI% or GIPRCNT), where numbers from 0 - 100% represent growth inhibition, and numbers from -100% - 0 represent cell death. For example, a value of 40 represents 60% growth inhibition. A value of 0 means no net growth occurred over the course of the experiment. […]
Compounds without any hit were thinned out: in the full panel of roughly 83,000, 20% have a hit. Active and inactive are the calls of the source. How the source made its calls: active means growth percent below 10; inactive means the rest.
Classes used: Y (active), N (inactive)

[[record]]
smilesrepr = "O=C(NCCNc1nccc(-c2c(-c3cccc(O)c3)nc3sccn23)n1)Nc1cccc(C(F)(F)F)c1"
grouplabel = "N"

[[record]]
smilesrepr = "COc1ccc(/C(=C/c2cc(OC)c(OC)c(OC)c2)[N+](=O)[O-])cc1"
grouplabel = "Y"

[[record]]
smilesrepr = "COc1ccc(-c2nn(-c3ccc(NC(=O)c4cc(C(F)(F)F)cc(C(F)(F)F)c4)cc3)cc2-c2ccncc2)cc1Cl"
grouplabel = "Y"

[[record]]
smilesrepr = "COc1ccc(OC)c(NCC(=O)n2nc(/C=C\\c3ccc(O)c(OC)c3)cc2/C=C\\c2ccc(O)c(OC)c2)c1"
grouplabel = "Y"

[[record]]
smilesrepr = "CCCCCC/C=N/Nc1ccc([N+](=O)[O-])cn1"
grouplabel = "N"

[[record]]
smilesrepr = "CCNc1ncnc2n[nH]nc12"
grouplabel = "N"

[[record]]
smilesrepr = "C=C1C(=O)O[C@H]2[C@H]1CC/C(C(=O)Nc1ccc(OC)c(C(N)=O)c1O)=C\\CC[C@@]1(C)O[C@@H]21"
grouplabel = "Y"

[[record]]
smilesrepr = "Nc1nccc2c1ccn2-c1ccc(NC(=O)Nc2cccc(C(F)(F)F)c2)cc1"
grouplabel = "N"

[[record]]
smilesrepr = "Fc1ccc(/C=N/n2c(-c3cc(Cl)cc(Cl)c3Cl)nn(CNc3ccc(Cl)nn3)c2=S)cc1"
grouplabel = "N"


Origin of measurements: PubChem BioAssay (NCI)
